Data origin: the supplement of paper PMC11208160

Experiment: recombinant barcode read abundance after kanamycin selection (control-corrected) (log10(CPM+1)); higher = more efficient recombination; sequences stand for … in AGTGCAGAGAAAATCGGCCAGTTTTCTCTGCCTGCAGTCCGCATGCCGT…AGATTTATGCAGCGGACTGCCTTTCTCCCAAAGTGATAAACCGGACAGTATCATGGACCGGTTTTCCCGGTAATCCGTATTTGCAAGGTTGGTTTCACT; site = the 11-nt target;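 further: IS621 recombinase and bridge RNA in Escherichia coli cells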
Collected recombinant barcode read abundance (log10) values appear next to each entry.
Readout label: recombinant barcode read abundance (log10)

> print(dat)
                            ordered.residues  reported.result
 1  CAGTTGGCTTGGGTTCTAACCTGTTGCCT (site CAGTTGGCTAG)             1.01
 2  AATGGGTCTTGGGTTCTAACCTGTTGCCT (site AATGGGCCTAG)            0.132
 3  AATTTGACTTGGGTTCTAACCTGTTGCCT (site AAATTGACTAG)            0.218
 4  AGCGCGACTTGGGTTCTAACCTGTTGCCT (site AGCGCGACTAG)            0.381
 5  ACGTCTCCTTGGGTTCTAACCTGTTGCTG (site ACGTCTCCTCA)            0.162
 6  TGACATGCTTGGGTTCTAACCTGTTGCCT (site TGATATGCTAG)            0.172
 7  CTACACTCTTGGGTTCTAACCTGTTGCCT (site CAACACTCTAG)             1.07
 8  GACGCAACTTGGGTTCTAACCTGTTGCAT (site GACGCTTCTAT)           0.0419
 9  TATCCGACTTGGGTTCTAACCTGTTGCCC (site TATCCGACTCG)            0.146
10  AATTCAGCTTGGGTTCTAACCTGTTGCCT (site AATTAAGCTAG)           0.0713
